- method: Human hepatic microsome stability test
- Format: in vitro ADME
- assay setup: human hepatic microsomes 1 mg/mL; 60 minutes; test compound 0.001 mmol/L; 37° C.
# key: entry, value: residual rate
Write the answer as a number in %, unit excluded.

Recorded results for 5 molecules are shown here.
molecule: NC1CCN(c2c(-c3ccc(OC(F)F)cc3)cncc2-c2cc(F)cc(Cl)c2)CC1
unit: %
residual rate: 100.0

molecule: N#CC1(c2ccc(-c3cncc(-c4cc(Cl)cc(Cl)c4)c3N3CCC(N)CC3)cc2)CC1
unit: %
residual rate: 100.0

molecule: N[C@@H]1CCN(c2c(-c3ccc(C(F)(F)F)cc3)cncc2-c2cc(Cl)cc(Cl)c2)C[C@@H]1O
unit: %
residual rate: 89.9

molecule: CCNC1CCN(c2c(/C=C(\C)c3cccc(F)c3)cncc2-c2cc(Cl)cc(Cl)c2)CC1
unit: %
residual rate: 88.6

molecule: C/C(=C\c1cncc(-c2cc(Cl)cc(Cl)c2)c1N1CCC(N)CC1)c1cccc(F)c1
unit: %
residual rate: 85.2

Consider the record given below.
[ask] Which residual rate value belongs to Cc1cc(C)cc(-c2cncc(-c3nc4c(C)cc(C)cc4[nH]3)c2N2CCC(N)CC2)c1 [formula (P), reference compound] ?
[reply] 1.2
